These entries and their values trace back to paper PMC4293705.

System: human hepatocarcinoma HepaRG cells
Run description: SDH activity
Type: cell-based
Experimental setup: Homo sapiens, HepaRG, 72 h, read-out: SDH, IC50 without Fe^III
pIC50: −log10 of the molar value.

{"Molecule": "O=C(O)c1ccc(-n2nc(-c3ccccc3O)nc2-c2ccccc2O)cc1 [ICL670, deferasirox, reference compound]", "pIC50": 4.96}

* * *

Run description: Protonation constants by potentiometric titration in H2O/DMSO
Assay type: physicochemical
Experimental setup: H2O/DMSO (v/v 30:70) solution, pKa1, I = 0.1 M (KCl); T = 298 K; H2O/DMSO v/v 30:70
Readout label: pKa

{"Compound": "O=C(O)c1ccc(-n2nc(-c3ccccc3O)nc2-c2ccccc2O)cc1 [ICL670, deferasirox, reference compound]", "Test value": 5.56}
